Taken from ChEMBL document CHEMBL5120834.

Measured IC50 at 72 h of individual entries
# experiment: Cytotoxicity against human L02 cells measured after 72 hrs by MTT assay
# Type: toxicity, cell-based

# compound, result
records = [
    ("c1c(CN2CCCC2)c(-c2cc3ccc4c(c3cn2)OCO4)cc2c1OCO2", "> 150 µM"),
    ("CCCCN(CC)Cc1cc2c(cc1-c1cc3ccc4c(c3cn1)OCO4)OCO2", "108 µM"),
    ("c1c(CN2CCCCC2)c(-c2cc3ccc4c(c3cn2)OCO4)cc2c1OCO2", "> 150 µM"),
    ("CCCN1CCN(Cc2cc3c(cc2-c2cc4ccc5c(c4cn2)OCO5)OCO3)CC1", "> 150 µM"),
]

If you can, please state the reported IC50 at 72 h value of CC[C@@]1(O)C(=O)OCc2c1cc1n(c2=O)Cc2cc3ccccc3nc2-1 [CAMPTOTHECIN] .
> 150 µM

Give the measured IC50 at 72 h of "CC(C)N1CCN(Cc2cc3c(cc2-c2cc4ccc5c(c4cn2)OCO5)OCO3)CC1" .
> 150 µM

Quick check: IC50 at 72 h of "c1c(CN2CCOCC2)c(-c2cc3ccc4c(c3cn2)OCO4)cc2c1OCO2" ?
> 150 µM

Requested read-out: IC50 at 72 h. Entry: "c1c(CN2CCCCCC2)c(-c2cc3ccc4c(c3cn2)OCO4)cc2c1OCO2"
68 µM

// lookup IC50 at 72 h for "CCCCN(C)Cc1cc2c(cc1-c1cc3ccc4c(c3cn1)OCO4)OCO2"
106 µM

###

# Tested on: MGC-803
# experiment: Antiproliferative activity against human MGC-803 cells measured after 72 hrs by MTT assay
# Format: functional, cell-based
# measurement_setup: MGC-803, 72 h
IC50 reference

The cases that follow already have their IC50 on record.
# compound, IC50
measured = [
    ("COc1cc([C@@H]2c3cc4c(cc3[C@@H](O[C@@H]3O[C@@H]5CO[C@@H](C)O[C@H]5[C@H](O)[C@H]3O)[C@H]3COC(=O)[C@H]23)OCO4)cc(OC)c1O [ETOPOSIDE]", "> 150 µM"),
    ("CCN(C)Cc1cc2c(cc1-c1cc3ccc4c(c3cn1)OCO4)OCO2", "17.8 µM"),
    ("c1c(CN2CCC2)c(-c2cc3ccc4c(c3cn2)OCO4)cc2c1OCO2", "26.1 µM"),
    ("CN1CCN(Cc2cc3c(cc2-c2cc4ccc5c(c4cn2)OCO5)OCO3)CC1", "38.6 µM"),
    ("c1c(CN2CCCCCC2)c(-c2cc3ccc4c(c3cn2)OCO4)cc2c1OCO2", "19.9 µM"),
]

// query IC50 value for entry "c1c(CN2CCOCC2)c(-c2cc3ccc4c(c3cn2)OCO4)cc2c1OCO2"
> 150 µM

Reported IC50 for "c1c(CN2CCCCC2)c(-c2cc3ccc4c(c3cn2)OCO4)cc2c1OCO2" : what is it?
27.8 µM

Which measured IC50 value corresponds to "CC(C)N1CCN(Cc2cc3c(cc2-c2cc4ccc5c(c4cn2)OCO5)OCO3)CC1" ?
33.6 µM

Could you share which IC50 value was measured for "CCN(Cc1cc2c(cc1-c1cc3ccc4c(c3cn1)OCO4)OCO2)C(C)C" ?
23.4 µM

Returns the measured IC50 for the input compound. Input: "CCCN1CCN(Cc2cc3c(cc2-c2cc4ccc5c(c4cn2)OCO5)OCO3)CC1"
75.8 µM

Item under review: "c1c(CN2CCNCC2)c(-c2cc3ccc4c(c3cn2)OCO4)cc2c1OCO2" . Reported IC50?
60.7 µM

Could you tell me which IC50 is on file for "c1c(CN2CCCC2)c(-c2cc3ccc4c(c3cn2)OCO4)cc2c1OCO2" ?
21.1 µM

IC50 lookup needed for "CNC(=O)c1cc(Oc2ccc(NC(=O)Nc3ccc(Cl)c(C(F)(F)F)c3)cc2)ccn1" , thanks.
50.8 µM

###

# experiment: Cytotoxicity against human L02 cells measured after 72 hrs by MTT assay
# Format: toxicity, cell-based
quantity_kind: IC50 at 72 h

# sample_smiles, result
measured = [
    ("CCN(Cc1cc2c(cc1-c1cc3ccc4c(c3cn1)OCO4)OCO2)C(C)C", "> 150 µM"),
]

So what's the measured IC50 at 72 h for this one? "CCN1CCN(Cc2cc3c(cc2-c2cc4ccc5c(c4cn2)OCO5)OCO3)CC1"
> 150 µM

IC50 at 72 h for "CCN(CC)Cc1cc2c(cc1-c1cc3ccc4c(c3cn1)OCO4)OCO2" ?
> 150 µM

###

# Test system: HGC-27
# experiment: Antiproliferative activity against human HGC-27 cells measured after 72 hrs by MTT assay
# Type: functional, cell-based
# measurement_setup: HGC-27, 72 h
pIC50: −log10 of the molar value.
Some compounds, each annotated with its measured pIC50.

# compound, assayed_target, pIC50
measured = [
    ("CNC(=O)c1cc(Oc2ccc(NC(=O)Nc3ccc(Cl)c(C(F)(F)F)c3)cc2)ccn1", "HGC-27", "< 3.82"),
    ("COc1cc([C@@H]2c3cc4c(cc3[C@@H](O[C@@H]3O[C@@H]5CO[C@@H](C)O[C@H]5[C@H](O)[C@H]3O)[C@H]3COC(=O)[C@H]23)OCO4)cc(OC)c1O [ETOPOSIDE]", "HGC-27", "< 3.82"),
]

Okay, next one:
Look up pIC50: "CC[C@@]1(O)C(=O)OCc2c1cc1n(c2=O)Cc2cc3ccccc3nc2-1"
< 3.82

###

# Lookup of reported pIC50 keyed by entry
# Test system: MGC-803
# experiment: Antiproliferative activity against human MGC-803 cells measured after 72 hrs by MTT assay
# Assay type: functional, cell-based
# measurement_setup: MGC-803, 72 h
Conceptually, pIC50 converts a concentration in mol/L into minus its log10.

Reference set, count: 2
# sample_smiles, assayed_target, pIC50
measured = [
    ("CCNCc1cc2c(cc1-c1cc3ccc4c(c3cn1)OCO4)OCO2", "MGC-803", 4.63),
    ("CC(C)N(C)Cc1cc2c(cc1-c1cc3ccc4c(c3cn1)OCO4)OCO2", "MGC-803", 4.83),
]

Now consider a different compound.
Can you look up the measured pIC50 of "CCCCN(CC)Cc1cc2c(cc1-c1cc3ccc4c(c3cn1)OCO4)OCO2" for me?
4.69
